// provenance: patent US20240115496A1

Test: In vivo pharmacokinetics, lung tissue homogenate (UPLC-MS/MS)
Set-up: species or system rat
Conditions: male, Sprague-Dawley (SD), lung tissue (homogenate supernatant); AH in rat lung tissue; tail intravenous injection group, 9 mg/kg
Experimental: SPF-grade healthy SD male rats, body weight 180-220 g, purchased from SPF (Beijing) Biotechnology Co., Ltd (Certificate No. SCXK (Beijing) 2019-0010), were conventionally reared under (23±2)° C., humidity: (50±10)%. […] 100 μL of the plasma sample or lung tissue supernatant was precisely absorbed, and 200 μL (100 ng/mL) of methanol solution containing the internal standard was added. […] The contents of BA and AH were determined by UPLC-MS/MS method. […]
Counter-ions that a name gives are not always drawn.
propertyName: Tmax (min)
Use min as the unit, but write only the number.

Consider the molecule Nc1c(Br)cc(Br)cc1CNC1CCC(O)CC1 (stereo not shown) [AH, ambroxol hydrochloride] and give its recorded Tmax.
1.98

---

Experiment: In vivo pharmacokinetics, lung tissue homogenate (UPLC-MS/MS)
Set-up: species or system rat
Conditions: male, Sprague-Dawley (SD); rat lung tissue homogenate; tail intravenous injection BA/AH-DPI saline solution 9 mg/kg; 60 min; read-out: Drug concentration of BA in lung tissue
Protocol: SPF-grade healthy SD male rats, body weight 180-220 g, purchased from SPF (Beijing) Biotechnology Co., Ltd (Certificate No. SCXK (Beijing) 2019-0010), were conventionally reared under (23±2)° C., humidity: (50±10)%. […] 100 μL of the plasma sample or lung tissue supernatant was precisely absorbed, and 200 μL (100 ng/mL) of methanol solution containing the internal standard was added. […] The contents of BA and AH were determined by UPLC-MS/MS method. […]
propertyName: concentration at 60 min (ng/mL)
Use ng/mL as the unit, but write only the number.

Consider the compound O=C(O)[C@H]1O[C@@H](Oc2cc3oc(-c4ccccc4)cc(=O)c3c(O)c2O)[C@H](O)[C@@H](O)[C@@H]1O and give its recorded concentration at 60 min.
16.3

---

Experiment: In vivo pharmacokinetics, plasma (UPLC-MS/MS)
Set-up: species or system rat
Conditions: male, SD, inhaled or intranasal; BA in rat plasma; pulmonary administration group, BA/AH-DPI 9 mg/kg; read-out: HLz (biological half-life) (converted)
propertyName: half-life (h)
Use h as the unit, but write only the number.

Consider the compound O=C(O)[C@H]1O[C@@H](Oc2cc3oc(-c4ccccc4)cc(=O)c3c(O)c2O)[C@H](O)[C@@H](O)[C@@H]1O [BA, baicalin] and give its recorded half-life.
2.01

---

Assay: In vivo pharmacokinetics, lung tissue homogenate (UPLC-MS/MS)
Parameters: species or system rat
Conditions: male, Sprague-Dawley (SD), lung tissue (homogenate supernatant), inhaled or intranasal; BA in rat lung tissue; pulmonary administration group, BA/AH-DPI 9 mg/kg
propertyName: Cmax (ng/g)
Use ng/g as the unit, but write only the number.

Consider the compound O=C(O)[C@H]1O[C@@H](Oc2cc3oc(-c4ccccc4)cc(=O)c3c(O)c2O)[C@H](O)[C@@H](O)[C@@H]1O [BA, baicalin] and give its recorded Cmax.
26000

---

Test: In vivo pharmacokinetics, lung tissue homogenate (UPLC-MS/MS)
Parameters: species or system rat
Details: male, Sprague-Dawley (SD); rat lung tissue homogenate; tail intravenous injection BA/AH-DPI saline solution 9 mg/kg; 10 min; read-out: Drug concentration of AH in lung tissue
Where a name gives a salt, the structure may show the parent alone.
propertyName: concentration at 10 min
Please state the value followed by its unit.

Consider the compound Nc1c(Br)cc(Br)cc1CNC1CCC(O)CC1 (stereo not shown) [AH, ambroxol hydrochloride] and give its recorded concentration at 10 min.
1230 ng/mL
